Target: T1, human GITR, membrane bound (on activated human T cells and on 3A9-hGITR cells) (human, UniProt Q9Y5U5 26-241)
T1 construct: whole, on cells; the cell is named under assay; also called huGITR; TNFRSF18
T1 sequence (looked up): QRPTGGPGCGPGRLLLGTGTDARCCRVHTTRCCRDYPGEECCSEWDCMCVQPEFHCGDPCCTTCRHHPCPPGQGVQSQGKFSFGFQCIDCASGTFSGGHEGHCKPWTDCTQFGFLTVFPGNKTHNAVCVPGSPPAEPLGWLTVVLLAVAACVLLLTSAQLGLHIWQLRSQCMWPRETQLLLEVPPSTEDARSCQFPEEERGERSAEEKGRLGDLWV
Test: FACS binding to 3A9-hGITR transfectant, Geo-MFI (PE); EC50 table beside the curves; unit from the axis
reported.metric: pEC50
By convention, pEC50 is the negative base-10 log of a molar concentration.

The following binders have reported results that may help.
- binder: "28F3 VH CDR3 mutant M98Q, D106E, M111L (antibody, V domains shown, also called E3) VH: QVQLVESGGGVVQPGRSLRLSCAASGFTFSSYGMHWVRQAPGKGLEWVAVIWYEGSNKYYADSVKGRFTISRDNSKNTLYLQMNSLRAEDTAVYYCARGGSQVRGEYYYGLDVWGQGTTVTVSS VL: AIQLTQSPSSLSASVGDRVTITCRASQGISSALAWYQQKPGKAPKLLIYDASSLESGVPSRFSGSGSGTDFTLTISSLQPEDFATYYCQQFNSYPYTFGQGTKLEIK"
  experimental.value: 7.69
- binder: "28F3 VH CDR3 mutant M98V, M111F (antibody, V domains shown, also called A2) VH: QVQLVESGGGVVQPGRSLRLSCAASGFTFSSYGMHWVRQAPGKGLEWVAVIWYEGSNKYYADSVKGRFTISRDNSKNTLYLQMNSLRAEDTAVYYCARGGSVVRGDYYYGFDVWGQGTTVTVSS VL: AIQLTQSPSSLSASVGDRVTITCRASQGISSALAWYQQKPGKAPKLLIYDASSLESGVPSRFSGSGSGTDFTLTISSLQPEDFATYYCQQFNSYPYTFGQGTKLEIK"
  experimental.value: 8.43

Q: Report pEC50 for 28F3 VH CDR3 mutant M98Q, M111F (antibody, V domains shown, also called E2) VH: QVQLVESGGGVVQPGRSLRLSCAASGFTFSSYGMHWVRQAPGKGLEWVAVIWYEGSNKYYADSVKGRFTISRDNSKNTLYLQMNSLRAEDTAVYYCARGGSQVRGDYYYGFDVWGQGTTVTVSS VL: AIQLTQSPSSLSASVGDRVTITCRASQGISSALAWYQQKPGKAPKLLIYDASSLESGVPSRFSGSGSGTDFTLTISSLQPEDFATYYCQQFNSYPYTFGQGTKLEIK please.
Result: 7.78
